Where do these numbers come from? They come from PubChem BioAssay AID1159580.

# assay: chemical genetic growth profiling, strain panel (AID 1159580);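 note: tested at 20 µM; growth read once vehicle control cultures reached saturation at 30 °C; lower values mean less growth of the strain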
# testParameters: S. cerevisiae deletion strains, growth OD, locus YOR080W, strain dia2
About 2,000 (36%) of roughly 5,500 compounds were called active. About 18% were inconclusive and are not listed. Cut-off read from the data, not from the text of the source: active = normalized growth mostly below about 0.91 (no sharp cut-off); inconclusive = no clear call, values can overlap the other calls; inactive = mostly above about 0.92. The list shows a part of the results.
Labels: active, inactive

>  <compound>
O=C(CCc1ccc(O)cc1)c1c(O)cc(O)cc1O[C@@H]1O[C@H](CO)[C@@H](O)[C@H](O)[C@H]1O

>  <qualitativeLabel>
inactive

$$$$
>  <compound>
NCCc1c[nH]c2ccccc12

>  <qualitativeLabel>
inactive

$$$$
>  <compound>
OCc1c[nH]c2ccccc12

>  <qualitativeLabel>
inactive

$$$$
>  <compound>
CC(=O)N[C@@H](Cc1c[nH]c2ccccc12)C(=O)O

>  <qualitativeLabel>
inactive

$$$$
>  <compound>
C=C(C)[C@@H]1CC[C@]2(CO)CC[C@]3(C)[C@H](CCC4[C@@]5(C)CC[C@H](O)C(C)(C)C5CC[C@]43C)C12 (stereo not given in full)

>  <qualitativeLabel>
inactive

$$$$
>  <compound>
COc1cc(/C=C/C(=O)N2CCC=CC2=O)cc(OC)c1OC

>  <qualitativeLabel>
inactive

$$$$
>  <compound>
CNC(Cc1c[nH]c2ccccc12)C(=O)O (stereo not given)

>  <qualitativeLabel>
inactive

$$$$
>  <compound>
c1ccc2c(Cc3c[nH]c4ccccc34)c[nH]c2c1

>  <qualitativeLabel>
active

$$$$
>  <compound>
CCOC([O-])=Nc1c[n+](N2CCOCC2)no1

>  <qualitativeLabel>
inactive

$$$$
>  <compound>
CN[C@@H]1[C@@H](O[C@H]2O[C@H](CO)[C@@H](N)[C@H](O)[C@H]2O)O[C@H]2C[C@@H](N)[C@H](O[C@H]3[C@H](O)[C@@H](O)[C@H](N)C[C@@H]3N)O[C@@H]2[C@@H]1O

>  <qualitativeLabel>
inactive

$$$$
